Data origin, for the record: ChEMBL document CHEMBL3879915

biological target: Protein arginine N-methyltransferase 5 (Homo sapiens); assay: Inhibition of PRMT5 in human Z138 cells assessed as decrease in di-methyl arginine levels after 96 hrs by Western blot method; assay type: cell-based
Sequence (O14744 whole entry): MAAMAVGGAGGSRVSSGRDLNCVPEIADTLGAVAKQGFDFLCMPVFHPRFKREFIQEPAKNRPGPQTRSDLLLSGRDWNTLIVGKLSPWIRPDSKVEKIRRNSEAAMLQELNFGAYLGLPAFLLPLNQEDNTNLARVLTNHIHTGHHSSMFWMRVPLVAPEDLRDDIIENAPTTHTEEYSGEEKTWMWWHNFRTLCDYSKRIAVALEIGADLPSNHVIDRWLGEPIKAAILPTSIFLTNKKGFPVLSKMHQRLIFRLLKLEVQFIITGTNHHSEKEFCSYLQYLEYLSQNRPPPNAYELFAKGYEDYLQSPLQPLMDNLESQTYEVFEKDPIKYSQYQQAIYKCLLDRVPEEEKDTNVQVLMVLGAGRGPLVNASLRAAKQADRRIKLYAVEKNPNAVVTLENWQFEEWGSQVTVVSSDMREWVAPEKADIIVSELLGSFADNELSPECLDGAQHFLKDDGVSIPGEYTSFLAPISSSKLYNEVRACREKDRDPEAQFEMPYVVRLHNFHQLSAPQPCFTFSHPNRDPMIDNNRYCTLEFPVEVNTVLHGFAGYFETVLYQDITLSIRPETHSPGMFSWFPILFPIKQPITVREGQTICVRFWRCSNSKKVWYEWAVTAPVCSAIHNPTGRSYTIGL
Readings of EC50 for the listed compounds

The cases that follow already have their EC50 on record.
compound	EC50
NS(=O)(=O)c1cccc(C(=O)NCC(O)CN2CCc3ccccc3C2)c1 (configuration not stated)	101 to 1000 nM
Cn1ccc2ccc(-c3cccc(OCC(O)CN4CCc5ccccc5C4)c3)cc21 (configuration not stated)	1000 to 10000 nM
N#Cc1ccccc1OCC(=O)NCC(O)CN1CCc2ccccc2C1 (configuration not stated)	101 to 1000 nM

Challenge: Given OC(COc1cccc(-c2ccc3nc[nH]c3c2)c1)CN1CCc2ccccc2C1 (configuration not stated) , state its recorded EC50.
Response given: 1000 to 10000 nM

Challenge: Next record, please: O=C(COc1ccccc1N1CCOCC1)NC[C@@H](O)CN1CCc2ccccc2C1
Response given: 101 to 1000 nM

Challenge: Same thing, different compound: N#Cc1ccc(OCC(=O)NCC(O)CN2CCc3ccccc3C2)cc1 (configuration not stated)
Response given: 101 to 1000 nM

Challenge: Can you handle O=C(COc1ccccc1S(=O)(=O)N1CCOCC1)NCC(O)CN1CCc2ccccc2C1 (configuration not stated) next?
Response given: 101 to 1000 nM

Challenge: Thanks! And CS(=O)(=O)Nc1ccc(-c2cccc(OCC(O)CN3CCc4ccccc4C3)c2)cc1 (configuration not stated) ?
Response given: 1000 to 10000 nM

Challenge: Cn1cnc2ccc(-c3cccc(OC[C@@H](O)CN4CCc5ccccc5C4)c3)cc21 ?
Response given: 1000 to 10000 nM

Challenge: Try this compound next: OC(CNc1cccc(-c2cccc3[nH]cnc23)c1)CN1CCc2ccccc2C1 (configuration not stated)
Response given: 101 to 1000 nM

Challenge: Please give the result for CC(=O)N1CCC(n2ccc3cnc(-c4ccnc(NCC(O)CN5CCc6ccccc6C5)c4)nc32)CC1 (configuration not stated) too.
Response given: < 100 nM

Challenge: Next entry: Cn1ncc2cnc(-c3cccc(OCC(O)CN4CCc5ccccc5C4)c3)cc21 (configuration not stated)
Response given: 101 to 1000 nM

Challenge: How about this compound: O=C(NC[C@H](O)CN1CCc2ccccc2C1)c1ccccc1
Response given: < 100 nM

Challenge: Same read-out for OC(COc1cccc(-c2cc(C(F)(F)F)ccc2Cl)c1)CN1CCc2ccccc2C1 (configuration not stated) ?
Response given: 1000 to 10000 nM

Challenge: What do we get for CS(=O)(=O)Nc1ccc(OCC(=O)NCC(O)CN2CCc3ccccc3C2)cc1 (configuration not stated) ?
Response given: 101 to 1000 nM

Challenge: And the next one, O=C(NCC(O)CN1CCc2ccccc2C1)c1cccc(-c2ccccn2)c1 (configuration not stated) ?
Response given: < 100 nM

Challenge: Also CC(=O)N(CC(O)CN1CCc2ccccc2C1)c1cccc(-c2ccc3ncn(C)c3c2)c1 (configuration not stated) , if possible.
Response given: 101 to 1000 nM
